MEASURED TARGET: T1, human MHC class II allotype DQA1*0102/DQB1*0602 (human, UniProt P01920 33-230, limits assumed)
T1 construct: Source and construct of the MHC protein in the assay are not described
T1 MHC II alpha: not shown
T1 MHC II beta: not shown
PROTOCOL: competitive MHC class II binding assay; competitor control peptide human insulin B 1-15
RECORDED ENDPOINT: ratio of its own IC50 to that of the control peptide
Enter the number alone.

In [3]: df
Out[3]:
                                     binder  value_observed
0  DGVLACAIATHAKIR (Synthetic peptide) [HDM26A]            0.61

Query :: Reported ratio of its own IC50 to that of the control peptide, binder DGLEVDVPGIDPNACH (Synthetic peptide, 66.7% purity) [HDM23A] : ____
Result :: 0.76

Query :: Can you check HDDVVSMEYDLAYKL (Synthetic peptide, 80.9% purity) [HDM39A] next?
Result :: 0.1

Query :: Can you check DTVRAEMTKVLAP (Synthetic peptide, 69.5% purity) [HDM49] next?
Result :: 1.7

Query :: Can you check RNQSLDLAEQELVDCASQH (Synthetic peptide, 60.1% purity) [HDM03C] next?
Result :: 0.16

Query :: Can you check RTVTPIRMQGGCG (Synthetic peptide, 79.6% purity) [HDM02] next?
Result :: 0.03

Query :: Can you check RYVAREQSCRRPN (Synthetic peptide, 79.7% purity) [HDM06] next?
Result :: 0.86
